Source: PubChem BioAssay AID1918937

system: 521955-158-R2-J5-PDC complex spheroid viability; assay: Anticancer human tumor 521955-158-R2-J5-PDC patient-derived pancreatic carcinoma cell line growth inhibition; settings: second compound 0.1 µM; first compound 3 µM; stronger effect = lower value
readout: viability, T/C (%)
One number for each entry, in %.

Reference set (2 entries):
compound | unit.of.measurement | viability, T/C
Nc1ccccc1NC(=O)c1ccc(CNC(=O)OCc2cccnc2)cc1 + NC1CC1c1ccc(-c2cccc(O)c2)cc1 | % | 0.44
NS(=O)(=O)OCC1CC(n2ccc3c(NC4CCc5ccccc54)ncnc32)CC1O (stereo not drawn) + NC1CCC(NC2CC2c2ccccc2)CC1 | % | 7.17

Pending compound:
Dear colleague, please send me the reported viability, T/C for CCN(c1cc(-c2ccc(CN3CCOCC3)cc2)cc(C(=O)NCc2c(C)cc(C)[nH]c2=O)c1C)C1CCOCC1 + NC1CC1c1ccc(-c2cccc(O)c2)cc1 when you can.
72.3

---

test system: 521955-158-R2-J5-PDC complex spheroid viability; assay: Anticancer human tumor 521955-158-R2-J5-PDC cell line growth inhibition; conditions: curve of first compound; second compound 1 µM;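 further: spheroids exposed to agents for seven days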
readout: pIC50
Numbers only, as −log10 of the molar value.

molecule | target.of.assay | pIC50
Nc1ccccc1NC(=O)c1ccc(CNC(=O)OCc2cccnc2)cc1 + NC1CC1c1ccc(-c2cccc(O)c2)cc1 | 521955-158-R2-J5-PDC complex spheroid viability | 6.35

Pending molecule:
Dear colleague, please send me the reported pIC50 for CC[C@@]1(O)C(=O)OCc2c1cc1n(c2=O)Cc2cc3c(CN(C)C)c(O)ccc3nc2-1 + NC1CC1c1ccc(-c2cccc(O)c2)cc1 when you can.
8.21

---

system: 521955-158-R2-J5-PDC complex spheroid viability; experiment: Anticancer human tumor 521955-158-R2-J5-PDC cell line growth inhibition; conditions: second compound 0.316 µM; first compound 0.1 µM; active = viability on the fitted dose curve at most 10% of control; inactive = the rest;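 further: spheroids exposed to agents for seven days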
Classes to choose from: 1 (active), 0 (inactive)

Example entries begin here.
molecule | target.of.assay | cat
CC[C@@]1(O)C(=O)OCc2c1cc1n(c2=O)Cc2cc3c(CN(C)C)c(O)ccc3nc2-1 + NC1CC1c1ccc(-c2cccc(O)c2)cc1 | 521955-158-R2-J5-PDC complex spheroid viability | 0
CC(C)CC(NC(=O)C(Cc1ccccc1)NC(=O)c1cnccn1)B(O)O (configuration not stated) + NC1CCC(NC2CC2c2ccccc2)CC1 | 521955-158-R2-J5-PDC complex spheroid viability | 1

Could you check what this test reported for Nc1ncn(C2CC(O)C(CO)O2)c(=O)n1 (configuration not stated) + NC1CCC(NC2CC2c2ccccc2)CC1 ?
0

Could you check what this test reported for CC1(C)CCC(CN2CCN(c3ccc(C(=O)NS(=O)(=O)c4ccc(NCC5CCOCC5)c([N+](=O)[O-])c4)c(Oc4cnc5[nH]ccc5c4)c3)CC2)=C(c2ccc(Cl)cc2)C1 + NC1CC1c1ccc(-c2cccc(O)c2)cc1 ?
0

---

tested on: 521955-158-R2-J5-PDC complex spheroid viability; test: Anticancer human tumor 521955-158-R2-J5-PDC cell line growth inhibition; conditions: second compound 0.1 µM; first compound 0.03 µM; stronger effect = lower value;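 further: spheroids exposed to agents for seven days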;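 on viability, T/C: percent of DMSO vehicle control luminescence viability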
readout: viability, T/C (%)
Numbers only, in %.

compound | target.of.assay | viability, T/C (%)
Nc1ncn(C2CC(O)C(CO)S2)c(=O)n1 (configuration not stated) + NC1CC1c1ccc(-c2cccc(O)c2)cc1 | 521955-158-R2-J5-PDC complex spheroid viability | 98
Nc1ncn(C2CC(O)C(CO)S2)c(=O)n1 (configuration not stated) + NC1CCC(NC2CC2c2ccccc2)CC1 | 521955-158-R2-J5-PDC complex spheroid viability | 79.8
COc1cc(C2c3cc4c(cc3C(OC3OC5COC(C)OC5C(O)C3O)C3COC(=O)C23)OCO4)cc(OC)c1O (configuration not stated) + NC1CCC(NC2CC2c2ccccc2)CC1 | 521955-158-R2-J5-PDC complex spheroid viability | 92.6

Okay, here is my list. What is viability, T/C for each of these?
1. NS(=O)(=O)OCC1CC(n2ccc3c(NC4CCc5ccccc54)ncnc32)CC1O (configuration not stated) + NC1CCC(NC2CC2c2ccccc2)CC1
2. COc1cc(C2c3cc4c(cc3C(OC3OC5COC(C)OC5C(O)C3O)C3COC(=O)C23)OCO4)cc(OC)c1O (configuration not stated) + NC1CC1c1ccc(-c2cccc(O)c2)cc1
3. NS(=O)(=O)OCC1CC(n2ccc3c(NC4CCc5ccccc54)ncnc32)CC1O (configuration not stated) + NC1CC1c1ccc(-c2cccc(O)c2)cc1
4. Nc1ccccc1NC(=O)c1ccc(CNC(=O)OCc2cccnc2)cc1 + NC1CCC(NC2CC2c2ccccc2)CC1

1: 49; 2: 94.8; 3: 72.8; 4: 107

---

tested on: 521955-158-R2-J5-PDC complex spheroid viability; experiment: Anticancer human tumor 521955-158-R2-J5-PDC cell line growth inhibition; details: second compound 0.316 µM; first compound 0.00316 µM; stronger effect = lower value;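 further: spheroids exposed to agents for seven days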;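 on viability, T/C: percent of DMSO vehicle control luminescence viability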
// returns not satisfied unless viability, T/C is strictly below 80%, in which case satisfied

Example entries begin here.
molecule | target.of.assay | cat
CC[C@@]1(O)C(=O)OCc2c1cc1n(c2=O)Cc2cc3c(CN(C)C)c(O)ccc3nc2-1 + NC1CCC(NC2CC2c2ccccc2)CC1 | 521955-158-R2-J5-PDC complex spheroid viability | satisfied
CC(C)CC(NC(=O)CNC(=O)c1cc(Cl)ccc1Cl)B1OC(=O)CC(CC(=O)O)(C(=O)O)O1 (stereo unspecified) + NC1CC1c1ccc(-c2cccc(O)c2)cc1 | 521955-158-R2-J5-PDC complex spheroid viability | not satisfied
CC1COCCN1c1cc(-c2ccnn2C)c2ccnc(-c3ccn[nH]3)c2n1 (stereo unspecified) + NC1CCC(NC2CC2c2ccccc2)CC1 | 521955-158-R2-J5-PDC complex spheroid viability | satisfied
Cn1ncnc1C1c2n[nH]c(=O)c3cc(F)cc(c23)NC1c1ccc(F)cc1 (stereo unspecified) + NC1CC1c1ccc(-c2cccc(O)c2)cc1 | 521955-158-R2-J5-PDC complex spheroid viability | not satisfied

Strictly below 80%: is that where viability, T/C of CC(C)CC(NC(=O)C(Cc1ccccc1)NC(=O)c1cnccn1)B(O)O (stereo unspecified) + NC1CC1c1ccc(-c2cccc(O)c2)cc1 sits?
satisfied

Strictly below 80%: is that where viability, T/C of O=C(C=Cn1cnc(-c2cc(C(F)(F)F)cc(C(F)(F)F)c2)n1)NNc1cnccn1 + NC1CC1c1ccc(-c2cccc(O)c2)cc1 sits?
satisfied

Strictly below 80%: is that where viability, T/C of CC(C)CC(NC(=O)C(Cc1ccccc1)NC(=O)c1cnccn1)B(O)O (stereo unspecified) + NC1CCC(NC2CC2c2ccccc2)CC1 sits?
satisfied

---

test system: 521955-158-R2-J5-PDC complex spheroid viability; assay: Anticancer human tumor 521955-158-R2-J5-PDC cell line growth inhibition; settings: second compound 1 µM; first compound 3.16 µM; stronger effect = lower value;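 further: spheroids exposed to agents for seven days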;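 on viability, T/C: percent of DMSO vehicle control luminescence viability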
readout: viability, T/C (%)
Give bare numbers, in %.

Reference set (3 entries):
compound | unit.of.measurement | viability, T/C
CC(C)c1c(-c2ccccc2)nc2c(C#N)c[nH]n2c1=O + NC1CCC(NC2CC2c2ccccc2)CC1 | % | 76.3
O=C(c1cc(Cc2n[nH]c(=O)c3ccccc23)ccc1F)N1CCN(C(=O)C2CC2)CC1 + NC1CC1c1ccc(-c2cccc(O)c2)cc1 | % | 67
CC1COCCN1c1cc(C2(S(C)(=N)=O)CC2)nc(-c2ccnc3[nH]ccc23)n1 (configuration not stated) + NC1CCC(NC2CC2c2ccccc2)CC1 | % | 12.3

Okay, here is my list. What is viability, T/C for each of these?
1. CC1COCCN1c1cc(C2(S(C)(=N)=O)CC2)nc(-c2ccnc3[nH]ccc23)n1 (configuration not stated) + NC1CC1c1ccc(-c2cccc(O)c2)cc1
2. O=C(c1cc(Cc2n[nH]c(=O)c3ccccc23)ccc1F)N1CCN(C(=O)C2CC2)CC1 + NC1CCC(NC2CC2c2ccccc2)CC1
3. CC(C)c1c(-c2ccccc2)nc2c(C#N)c[nH]n2c1=O + NC1CC1c1ccc(-c2cccc(O)c2)cc1
4. CC1(C)CCC(CN2CCN(c3ccc(C(=O)NS(=O)(=O)c4ccc(NCC5CCOCC5)c([N+](=O)[O-])c4)c(Oc4cnc5[nH]ccc5c4)c3)CC2)=C(c2ccc(Cl)cc2)C1 + NC1CC1c1ccc(-c2cccc(O)c2)cc1

1. 15.9
2. 97.1
3. 60.6
4. 61

---

Provide the recorded viability, T/C for the entries that follow.
system: 521955-158-R2-J5-PDC complex spheroid viability; experiment: Anticancer human tumor 521955-158-R2-J5-PDC cell line growth inhibition; conditions: second compound 3.16 µM; first compound 1 µM; stronger effect = lower value;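 further: spheroids exposed to agents for seven days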;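 on viability, T/C: percent of DMSO vehicle control luminescence viability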

molecule | data.value
CC1COCCN1c1cc(-c2ccnn2C)c2ccnc(-c3ccn[nH]3)c2n1 (stereo not drawn) + NC1CCC(NC2CC2c2ccccc2)CC1 | 8.47%
O=C(C=Cn1cnc(-c2cc(C(F)(F)F)cc(C(F)(F)F)c2)n1)NNc1cnccn1 + NC1CC1c1ccc(-c2cccc(O)c2)cc1 | 17.5%
O=C(C=Cn1cnc(-c2cc(C(F)(F)F)cc(C(F)(F)F)c2)n1)NNc1cnccn1 + NC1CCC(NC2CC2c2ccccc2)CC1 | 17.1%
CC(C)c1c(-c2ccccc2)nc2c(C#N)c[nH]n2c1=O + NC1CC1c1ccc(-c2cccc(O)c2)cc1 | 69.8%
CC1(C)CCC(CN2CCN(c3ccc(C(=O)NS(=O)(=O)c4ccc(NCC5CCOCC5)c([N+](=O)[O-])c4)c(Oc4cnc5[nH]ccc5c4)c3)CC2)=C(c2ccc(Cl)cc2)C1 + NC1CC1c1ccc(-c2cccc(O)c2)cc1 | 90.2%
COc1cc(Nc2ncc3c(n2)-c2ccc(Cl)cc2C(c2c(F)cccc2OC)=NC3)ccc1C(=O)O + NC1CCC(NC2CC2c2ccccc2)CC1 | 41.8%

Okay, here is my list. What is viability, T/C for each of these?
1. CC1COCCN1c1cc(C2(S(C)(=N)=O)CC2)nc(-c2ccnc3[nH]ccc23)n1 (stereo not drawn) + NC1CC1c1ccc(-c2cccc(O)c2)cc1
2. Nc1ncn(C2CC(O)C(CO)O2)c(=O)n1 (stereo not drawn) + NC1CC1c1ccc(-c2cccc(O)c2)cc1
3. Nc1ncn(C2CC(O)C(CO)O2)c(=O)n1 (stereo not drawn) + NC1CCC(NC2CC2c2ccccc2)CC1

1. 25.5%
2. 65.1%
3. 49%
